test system: kochia; test: Test C postemergence; format: in vivo, Bassia scoparia; conditions: Postemergence, 500 g ai/ha, 10 days, visual 0 to 100 scale (0 no effect, 100 complete control)
endpointName: Plant response rating, Kochia

Sample records with Plant response rating, Kochia:
- compound: "CC(C)c1ncn(-c2ccc([S+]([O-])C(F)(F)F)c(C(=O)N3C[C@H](C)Oc4c(Cl)cccc43)c2)n1 (stereo partly shown)"
  reportedResult: 20
- compound: "Cc1ccc(-n2cnc(C[S+](C)[O-])n2)cc1C(=O)N1C[C@H](C)Oc2c(Cl)cccc21 (stereo partly shown)"
  reportedResult: 90
- compound: "Cc1ccc(-n2cnc(C(C)C)n2)cc1C(=O)N1C[C@H](C)Oc2c(F)cccc21"
  reportedResult: 80
- compound: "Cc1ccc(-n2cnc(C3CCC3)n2)cc1C(=O)N1CC(C(F)(F)F)Oc2c(Cl)cccc21 (single isomer, unassigned)"
  reportedResult: 90
- compound: "Cc1ccc(-n2cnc(C(C)(C)C)n2)cc1C(=O)N1CC(C(F)(F)F)Oc2c(Cl)cccc21 (single isomer, unassigned)"
  reportedResult: 100

// each compound listed below needs its Plant response rating, Kochia
1. Cc1ccc(-n2cnc(C3(C(F)(F)F)CCC3)n2)cc1C(=O)N1C[C@H](C)Oc2c(Cl)cccc21
2. Cc1cn(-c2cccc(C(=O)N3C[C@H](C)Oc4c(C)cccc43)c2)cn1

1. 80
2. 60

Every entry's value here was drawn from patent US20260262643A1.
